- Test system: TK-10 renal
- test.details: NCI-60 one-dose screen, 48 h
- reported.conditions: 10 µM unless noted
About 83,000 compounds went through this panel and 20% of them were active in at least one assay; those are over-represented in the sample as a whole. The source made the active and inactive calls. How the source made its calls: active means growth percent below 10; inactive means the rest.
In this exercise, the only acceptable responses are active, inactive

Query: Any idea what this test logged for "Oc1[nH]c2ccccc2c1/C=c1/cc2c(c(-c3ccc(F)cc3)n1)=Nc1ccccc1-2" ?
Reply: inactive

Query: Which outcome did this test record for the molecule "CNC(=O)c1cc(Oc2ccc3nc(NC(=O)Nc4cc(C(F)(F)F)cc(C(F)(F)F)c4)sc3c2)ccn1" ?
Reply: active

Query: Hi, sorry to bother you, what did the test record for "c1ccc([P+](CCCc2n(Cc3ccc4ccccc4c3)c3ccccc3[n+]2Cc2ccc3ccccc3c2)(c2ccccc2)c2ccccc2)cc1" ?
Reply: inactive

Query: Please let me know the test result on file for "Cc1ccc(/C=C(\C#N)n2nnc3cc(Cl)c(Cl)cc32)cc1" .
Reply: inactive

Query: I'd appreciate the recorded outcome for "O=C1/C(=C/c2ccc([N+](=O)[O-])cc2)COc2ccc(O)c(O)c21" from this test.
Reply: active

Query: For this molecule, state the assay outcome: "Nc1nc(N)c(-c2ccc(Cl)cc2)c(/C=C/c2ccc([N+](=O)[O-])cc2)n1"
Reply: inactive

Query: Please let me know the test result on file for "C=C1C(=O)O[C@H]2[C@H]1CC/C(COC(=O)/C=C\C(=O)NCc1ccc(Cn3c(=O)sn(CCCI)c3=O)cc1)=C\CC[C@@]1(C)O[C@@H]21" .
Reply: active

Query: Identify the outcome logged in this assay for the molecule shown: "Cc1ccc(-n2nnc(C3=NCCc4c3[nH]c3ccc(Cl)cc43)c2C)cc1"
Reply: inactive
